biological target: UniProt:O14965; test: Inhibition of recombinant GST-AURKA (residues Ser123 to Ser401) (unknown origin) expressed in Sf9 insect cells using tetra(-LRRASLG) peptide as substrate incubated for 90 mins by ATP Kinase Glo assay
Sequence (O14965 whole entry, the tested form may be a part): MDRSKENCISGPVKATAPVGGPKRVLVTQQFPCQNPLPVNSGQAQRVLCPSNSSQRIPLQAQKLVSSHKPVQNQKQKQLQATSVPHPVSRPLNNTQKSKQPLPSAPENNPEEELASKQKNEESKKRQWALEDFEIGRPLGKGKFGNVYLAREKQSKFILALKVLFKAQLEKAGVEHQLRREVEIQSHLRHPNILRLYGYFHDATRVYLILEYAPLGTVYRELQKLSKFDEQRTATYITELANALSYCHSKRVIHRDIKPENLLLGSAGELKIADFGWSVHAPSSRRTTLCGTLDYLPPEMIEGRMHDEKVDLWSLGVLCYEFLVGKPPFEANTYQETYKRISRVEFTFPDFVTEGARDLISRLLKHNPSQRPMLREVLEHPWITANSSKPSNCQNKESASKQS
experimentalReadout: IC50 (nM)

| structureSmiles | experimentalTarget | experimentalReadout | cmp | obsValue |
| --- | --- | --- | --- | --- |
| COc1ccc2c(NCCc3cnc(NC(=O)Nc4cccc(Cl)c4)s3)ncnc2c1 | UniProt:O14965 | IC50 | = | 9 |
| CN(C)c1ccc2c(Oc3ccc(NC(=O)NCc4ccc(C(F)(F)F)nc4)cc3)ncnc2c1 | UniProt:O14965 | IC50 | > | 10000 |
| COc1ccc(NC(=O)Nc2ccc(Oc3ncnc4cc(N(C)C)ccc34)cc2)cc1 | UniProt:O14965 | IC50 | > | 10000 |
| CN(C)c1ccc2c(Oc3ccc(NC(=O)NCc4ccc(F)cc4)cc3)ncnc2c1 | UniProt:O14965 | IC50 | > | 10000 |
| O=C(Nc1cccc(Cl)c1)Nc1ncc(CCNc2ncnc3cc(F)ccc23)s1 | UniProt:O14965 | IC50 | = | 9 |

* * *

assay: Tmax in Sprague-Dawley rat at 20 to 25 mg/kg, po measured up to 24 hrs by LC-MS/MS analysis; format: ADME, organism-based; conditions: in vivo, dose 20-25 mg/kg
Property: Tmax; scope: individual molecules

| structureSmiles | unitName | Tmax |
| --- | --- | --- |
| COc1ccc(NC(=O)Nc2ccc(Oc3ncnc4cc(N(C)C)ccc34)cc2)cc1 | h | 2.7 |
| COc1ccc(CNC(=O)Nc2ccc(Oc3ncnc4cc(N(C)C)ccc34)cc2)cc1 | h | 6 |
| COc1ccc(CNC(=O)Nc2ccc(Oc3ncnc4cc(N(C)C)ccc34)cc2)cn1 | h | 2.3 |
| CN(C)c1ccc2c(Oc3ccc(NC(=O)NCc4ccc(F)cc4)cc3)ncnc2c1 | h | 0.5 |
| Cc1ccc(CNC(=O)Nc2ccc(Oc3ncnc4cc(N(C)C)ccc34)cc2)cn1 | h | 3.2 |
| CN(C)c1ccc2c(Oc3ccc(NC(=O)NCc4ccc(C(F)(F)F)nc4)cc3)ncnc2c1 | h | 5.5 |
| CN(C)c1ccc2c(Oc3ccc(NC(=O)NCc4ccc(C(F)(F)F)nc4)cc3)ncnc2c1.CS(=O)(=O)O | h | 0.5 |

* * *

system: BaF3; test: Antiproliferative activity against mouse BaF3 cells transfected with human ETV6-CSF1R assessed as reduction in cell viability measured after 72 hrs by MTS method; details: BaF3, 72 h
experimentalReadout: EC50 (nM)

| molecule | experimentalReadout | obsValue |
| --- | --- | --- |
| COc1cccc(NC(=O)Nc2ccc(Oc3ncnc4cc(N(C)C)ccc34)cc2)c1 | EC50 | 65 |
| CN(C)c1ccc2c(Oc3ccc(NC(=O)NCc4c(F)c(F)c(F)c(F)c4F)cc3)ncnc2c1 | EC50 | 108 |
| COc1cc(Oc2ccnc3cc(OC)c(OC)cc23)ccc1NC(=O)NC(C)c1nccs1 (stereo not given) | EC50 | 76 |
| COc1ccc(CNC(=O)Nc2ccc(Oc3ncnc4cc(N(C)C)ccc34)cc2)cc1 | EC50 | 91 |
| Cc1ccc(CNC(=O)Nc2ccc(Oc3ncnc4cc(N(C)C)ccc34)cc2)cn1 | EC50 | 38 |
